Origin of measurements: the NIST ThermoML archive (doi:10.1021/je049540s)

A collection of compounds and their measured activity coefficient
METHOD_DESCRIPTION: activity coefficient (dimensionless); of the first substance listed, at infinite dilution; xn = mol fraction of the nth substance listed
RUN_PARAMETERS: 393.15 K; 101.3 kPa; Liquid; Differential ebulliometry; x1 = 0
ASSAY_ENDPOINT: activity coefficient

COMPOUND | ASSAY_ENDPOINT | NUMERIC_READOUT
Cc1cccc(O)c1 [3-methylphenol] + CCCCCCCCCCC | activity coefficient | 6.25
Cc1cccc(O)c1 [3-methylphenol] + CCCCCCCCC | activity coefficient | 7.06
Cc1ccccc1O [2-methylphenol] + CCCCCCCCCCC | activity coefficient | 4.47
Cc1ccccc1O [2-methylphenol] + CCCCCCCCC | activity coefficient | 4.58
Cc1ccccc1O [2-methylphenol] + CCCCCCCCCC | activity coefficient | 4.15

====

METHOD_DESCRIPTION: activity coefficient (dimensionless); of the first substance listed, at infinite dilution; xn = mol fraction of the nth substance listed
RUN_PARAMETERS: 433.15 K; 101.3 kPa; Liquid; Differential ebulliometry; x1 = 0

COMPOUND | activity coefficient
Cc1cccc(O)c1 [3-methylphenol] + CCCCCCCCCCC | 3.93
Cc1ccccc1O [2-methylphenol] + CCCCCCCCCCC | 2.85
Cc1ccccc1O [2-methylphenol] + CCCCCCCCCC | 3.04
Cc1cccc(O)c1 [3-methylphenol] + CCCCCCCCCC | 4.26

====

METHOD_DESCRIPTION: activity coefficient (dimensionless); of the first substance listed, at infinite dilution; xn = mol fraction of the nth substance listed
RUN_PARAMETERS: 413.15 K; 101.3 kPa; Liquid; Differential ebulliometry; x1 = 0
A collection of compounds and their measured activity coefficient
ASSAY_ENDPOINT: activity coefficient

COMPOUND | NUMERIC_READOUT
Cc1ccccc1O [2-methylphenol] + CCCCCCCCC | 3.8
Cc1ccccc1O [2-methylphenol] + CCCCCCCCCCC | 3.77
Cc1cccc(O)c1 [3-methylphenol] + CCCCCCCCC | 5.96
Cc1cccc(O)c1 [3-methylphenol] + CCCCCCCCCCC | 4.9
Cc1ccccc1O [2-methylphenol] + CCCCCCCCCC | 3.49
